test_settings: cytotoxicity against P388 cells/IC50
Where a SMILES comes first, the peptide text is derived from it. [ ]: non-standard residue; d: D form. The star is where a group is joined. NHCH2CH2OH = OCCN*; For = O=C*
assay_metric: pIC50
One number for each entry, as −log10 of the molar value.

Reported pIC50 for CC(C)C[C@@H](NC(=O)[C@H](Cc1c[nH]c2ccccc12)NC(=O)[C@H](NC(=O)[C@@H](NC(=O)[C@H](NC(=O)[C@H](C)NC(=O)[C@H](NC(=O)[C@H](C)NC(=O)CNC(=O)[C@@H](NC=O)C(C)C)C(C)C)C(C)C)C(C)C)C(C)C)C(=O)N[C@@H](Cc1c[nH]c2ccccc12)C(=O)N[C@@H](C(=O)N[C@@H](Cc1c[nH]c2ccccc12)C(=O)N[C@@H](C(=O)N[C@@H](Cc1c[nH]c2ccccc12)C(=O)NCCO)C(C)C)C(C)C [B01] (For-VGA[dV]A[dV]V[dV]W[dL]W[dV]W[dV]W-NHCH2CH2OH) : what is it?
7.76

Reported pIC50 for CC(C)C[C@@H](NC(=O)[C@H](C)NC(=O)[C@H](NC(=O)[C@H](C)NC(=O)CNC(=O)[C@@H](NC=O)C(C)C)C(C)C)C(=O)N[C@H](C(=O)N[C@@H](C(=O)N[C@@H](Cc1c[nH]c2ccccc12)C(=O)N[C@@H](C(=O)N[C@@H](Cc1c[nH]c2ccccc12)C(=O)N[C@H](CC(C)C)C(=O)N[C@@H](Cc1c[nH]c2ccccc12)C(=O)N[C@H](CC(C)C)C(=O)N[C@@H](Cc1c[nH]c2ccccc12)C(=O)NCCO)C(C)C)C(C)C)C(C)C [B02] (For-VGA[dV]A[dL]V[dV]W[dV]W[dL]W[dL]W-NHCH2CH2OH) : what is it?
7.77

Now for a further molecule.
Reported pIC50 for CC(C)C[C@@H](NC(=O)[C@H](C)NC(=O)CNC(=O)[C@@H](NC=O)C(C)C)C(=O)N[C@@H](C)C(=O)N[C@@H](C(=O)N[C@H](C(=O)N[C@@H](C(=O)N[C@@H](Cc1c[nH]c2ccccc12)C(=O)N[C@H](CC(C)C)C(=O)N[C@@H](Cc1c[nH]c2ccccc12)C(=O)N[C@H](CC(C)C)C(=O)N[C@@H](Cc1c[nH]c2ccccc12)C(=O)N[C@H](CC(C)C)C(=O)N[C@@H](Cc1c[nH]c2ccccc12)C(=O)NCCO)C(C)C)C(C)C)C(C)C [compound 1, Gramicidin A] (For-VGA[dL]A[dV]V[dV]W[dL]W[dL]W[dL]W-NHCH2CH2OH) : what is it?
8.24

----------
System: Streptococcus pyogenes SSI-9
assay_protocol: Antibacterial activity assay of bead-derived peptides (three concentrations)
Format: cell-based
Set-up: key: +++: inhibition by the 640-fold diluted peptide solution; ++: inhibition by the 160-fold diluted solution; +: inhibition by the 40-fold diluted solution; -: no inhibition
test_settings: S. pyogenes, bead-derived peptide solution, three concentrations
Where a SMILES comes first, the peptide text is derived from it. [ ]: non-standard residue; d: D form. The star is where a group is joined. NHCH2CH2OH = OCCN*; For = O=C*
assay_metric: antibacterial activity

Reported antibacterial activity for CC(C)C[C@@H](NC(=O)[C@H](C)NC(=O)CNC(=O)[C@@H](NC=O)C(C)C)C(=O)N[C@@H](C)C(=O)N[C@@H](C(=O)N[C@H](C(=O)N[C@H](CC(C)C)C(=O)N[C@@H](Cc1c[nH]c2ccccc12)C(=O)N[C@H](CC(C)C)C(=O)N[C@@H](Cc1c[nH]c2ccccc12)C(=O)N[C@@H](C(=O)N[C@@H](Cc1c[nH]c2ccccc12)C(=O)N[C@@H](C(=O)N[C@@H](Cc1c[nH]c2ccccc12)C(=O)NCCO)[C@H](C)O)[C@H](C)O)C(C)C)C(C)C [compound 4328] (For-VGA[dL]A[dV]V[dL]W[dL]W[dT]W[dT]W-NHCH2CH2OH) : what is it?
+

Reported antibacterial activity for CC(C)C[C@@H](NC(=O)[C@H](C)NC(=O)CNC(=O)[C@@H](NC=O)C(C)C)C(=O)N[C@@H](C)C(=O)N[C@H](CC(C)C)C(=O)N[C@H](C(=O)N[C@H](CC(C)C)C(=O)N[C@@H](Cc1c[nH]c2ccccc12)C(=O)N[C@H](CC(C)C)C(=O)N[C@@H](Cc1c[nH]c2ccccc12)C(=O)N[C@@H](C(=O)N[C@@H](Cc1c[nH]c2ccccc12)C(=O)N[C@@H](C(=O)N[C@@H](Cc1c[nH]c2ccccc12)C(=O)NCCO)C(C)C)C(C)C)C(C)C [compound 2718] (For-VGA[dL]A[dL]V[dL]W[dL]W[dV]W[dV]W-NHCH2CH2OH) : what is it?
+

----------
test_settings: cell viability/%
Where a SMILES comes first, the peptide text is derived from it. [ ]: non-standard residue; d: D form. The star is where a group is joined. NHCH2CH2OH = OCCN*; For = O=C*
assay_metric: viability (%)
Give bare numbers, in %.

Here are 2 molecules together with their reported answers.
Reported viability for CNC(=O)C[C@@H](NC(=O)[C@H](C)NC(=O)[C@@H](CC(C)C)NC(=O)[C@H](C)NC(=O)CNC(=O)[C@@H](NC=O)C(C)C)C(=O)N[C@H](C(=O)N[C@@H](C(=O)N[C@@H](Cc1c[nH]c2ccccc12)C(=O)N[C@H](CC(C)C)C(=O)N[C@@H](Cc1c[nH]c2ccccc12)C(=O)N[C@@H](C(=O)N[C@@H](Cc1c[nH]c2ccccc12)C(=O)N[C@@H](C(=O)N[C@@H](Cc1c[nH]c2ccccc12)C(=O)NCCO)C(C)C)C(C)C)C(C)C)C(C)C [compound 11290] (For-VGA[dL]A[dD](NHMe)V[dV]W[dL]W[dV]W[dV]W-NHCH2CH2OH) : what is it?
87.6

Reported viability for CNC(=O)C[C@@H](NC(=O)[C@H](C)NC(=O)CNC(=O)[C@@H](NC=O)C(C)C)C(=O)N[C@@H](C)C(=O)N[C@@H](C(=O)N[C@H](C(=O)N[C@@H](C(=O)N[C@@H](Cc1c[nH]c2ccccc12)C(=O)N[C@H](CC(C)C)C(=O)N[C@@H](Cc1c[nH]c2ccccc12)C(=O)N[C@H](CC(C)C)C(=O)N[C@@H](Cc1c[nH]c2ccccc12)C(=O)N[C@@H](C(=O)N[C@@H](Cc1c[nH]c2ccccc12)C(=O)NCCO)C(C)C)C(C)C)C(C)C)C(C)C [compound 11200] (For-VGA[dD](NHMe)A[dV]V[dV]W[dL]W[dL]W[dV]W-NHCH2CH2OH) : what is it?
66

Dear colleague, could you please provide viability for the molecules listed below?
1. CC(C)C[C@@H](NC(=O)[C@H](C)NC(=O)[C@H](NC(=O)[C@H](C)NC(=O)CNC(=O)[C@@H](NC=O)C(C)C)C(C)C)C(=O)N[C@H](C(=O)N[C@@H](C(=O)N[C@@H](Cc1c[nH]c2ccccc12)C(=O)N[C@@H](C(=O)N[C@@H](Cc1c[nH]c2ccccc12)C(=O)N[C@@H](C(=O)N[C@@H](Cc1c[nH]c2ccccc12)C(=O)N[C@H](CC(C)C)C(=O)N[C@@H](Cc1c[nH]c2ccccc12)C(=O)NCCO)[C@H](C)O)C(C)C)C(C)C)C(C)C [compound 2727] (For-VGA[dV]A[dL]V[dV]W[dV]W[dT]W[dL]W-NHCH2CH2OH)
2. CC(C)[C@H](NC=O)C(=O)NCC(=O)N[C@@H](C)C(=O)N[C@@H](C(=O)N[C@@H](C)C(=O)N[C@@H](C(=O)N[C@H](C(=O)N[C@@H](C(=O)N[C@@H](Cc1c[nH]c2ccccc12)C(=O)N[C@@H](C(=O)N[C@@H](Cc1c[nH]c2ccccc12)C(=O)N[C@@H](C(=O)N[C@@H](Cc1c[nH]c2ccccc12)C(=O)N[C@@H](C(=O)N[C@@H](Cc1c[nH]c2ccccc12)C(=O)NCCO)C(C)C)C(C)C)C(C)C)C(C)C)C(C)C)C(C)C)C(C)C [compound 4223] (For-VGA[dV]A[dV]V[dV]W[dV]W[dV]W[dV]W-NHCH2CH2OH)

100
95.6

----------
Test system: Streptococcus pyogenes SSI-9
assay_protocol: Antibacterial activity assay of bead-derived peptides (three concentrations)
Assay type: cell-based
Set-up: key: +++: inhibition by the 640-fold diluted peptide solution; ++: inhibition by the 160-fold diluted solution; +: inhibition by the 40-fold diluted solution; -: no inhibition
test_settings: S. pyogenes, bead-derived peptide solution, three concentrations
Where a SMILES comes first, the peptide text is derived from it. [ ]: non-standard residue; d: D form. The star is where a group is joined. NHCH2CH2OH = OCCN*; For = O=C*
assay_metric: antibacterial activity

Reported antibacterial activity for CNC(=O)C[C@@H](NC(=O)[C@@H](NC(=O)[C@H](NC(=O)[C@H](C)NC(=O)[C@H](NC(=O)[C@H](C)NC(=O)CNC(=O)[C@@H](NC=O)C(C)C)C(C)C)C(C)C)C(C)C)C(=O)N[C@@H](Cc1c[nH]c2ccccc12)C(=O)N[C@H](CC(C)C)C(=O)N[C@@H](Cc1c[nH]c2ccccc12)C(=O)N[C@@H](C(=O)N[C@@H](Cc1c[nH]c2ccccc12)C(=O)N[C@@H](C(=O)N[C@@H](Cc1c[nH]c2ccccc12)C(=O)NCCO)C(C)C)C(C)C [compound 5536] (For-VGA[dV]A[dV]V[dD](NHMe)W[dL]W[dV]W[dV]W-NHCH2CH2OH) : what is it?
-

Reported antibacterial activity for CC(C)C[C@@H](NC(=O)[C@H](C)NC(=O)[C@H](NC(=O)[C@H](C)NC(=O)CNC(=O)[C@@H](NC=O)C(C)C)[C@H](C)O)C(=O)N[C@H](C(=O)N[C@H](CC(C)C)C(=O)N[C@@H](Cc1c[nH]c2ccccc12)C(=O)N[C@H](CC(C)C)C(=O)N[C@@H](Cc1c[nH]c2ccccc12)C(=O)N[C@@H](C(=O)N[C@@H](Cc1c[nH]c2ccccc12)C(=O)N[C@@H](C(=O)N[C@@H](Cc1c[nH]c2ccccc12)C(=O)NCCO)C(C)C)C(C)C)C(C)C [compound 569] (For-VGA[dT]A[dL]V[dL]W[dL]W[dV]W[dV]W-NHCH2CH2OH) : what is it?
-
